System: keratinocytes
Test: Rate of DNA synthesis (3H-thymidine incorporation) in keratinocytes
Assay type: cell-based, human
Conditions: Table 5; 1 uM ceramide + 10 uM Econazole, 100 nM 1,25D; * = synergistic effect
REPORTED_METRIC: keratinocyte DNA synthesis, % of the corresponding controls (10 uM Econazole)

Ask: Specify measured keratinocyte DNA synthesis, % of the corresponding controls (10 uM Econazole) for CCCCCCCCCCCCCCCCOCC(O)CN(CCO)C(C)=O (stereo not drawn) .
Result: 20.5 + 12.9%

Ask: State its keratinocyte DNA synthesis, % of the corresponding controls (10 uM Econazole) for this molecule: CCCCCCCCCCCCC/C=C/C(O)C(CO)NC(C)=O (stereo not drawn)
Result: 38.2 + 13.9%

Ask: Supply measured keratinocyte DNA synthesis, % of the corresponding controls (10 uM Econazole) of CCCCCCCCCCCCN(CC(O)CO)C(=O)C(O)CCCCCC (stereo not drawn) in your reply.
Result: 38.7 + 14.8%

====

Tested on: 1,25D degradation (vitamin D metabolism in keratinocytes)
Experiment: Vitamin D metabolism in keratinocytes: 1,25D degradation
Type: cell-based, human
Conditions: Table 1; 10 uM compound
Description: 1. Normal human keratinocytes isolated from neonatal foreskins by trypsin treatment were grown in DME medium/10% fetal calf serum in the presence of irradiated 3T3 mouse fibroblasts for establishing dividing keratinocyte colonies. […] 80% confluent keratinocytes were incubated with 0.05 uCi of ^3 H-25D or ^3 H-1,25D for two hours or 20 hours in the presence of 1-100 uM of the different compounds. […] The amount of radioactivity in each lane was quantitated using the BioScan radioactive plate reader. […]
REPORTED_METRIC: % degradation (1,25D) (%)
Write the number in % without appending the unit.

Ask: Give % degradation (1,25D) for this entry on 1,25D degradation (vitamin D metabolism in keratinocytes): Clc1ccc(COC(Cn2ccnc2)c2ccc(Cl)cc2Cl)c(Cl)c1 (stereo not shown)
Result: 70

Ask: Please look at `Clc1ccccc1C(c1ccccc1)(c1ccccc1)n1ccnc1` and tell me its recorded % degradation (1,25D) on 1,25D degradation (vitamin D metabolism in keratinocytes).
Result: 2

Ask: Print 1,25D degradation (vitamin D metabolism in keratinocytes) % degradation (1,25D) for c1ccc(-c2ccc(C(c3ccccc3)n3ccnc3)cc2)cc1 (stereo not shown) .
Result: 56

Ask: Name the value of % degradation (1,25D) reported for Clc1ccc(COC(Cn2ccnc2)c2ccc(Cl)cc2Cl)cc1 (stereo not shown) when tested on 1,25D degradation (vitamin D metabolism in keratinocytes).
Result: 2

====

Tested on: 1,25D degradation (vitamin D metabolism in keratinocytes)
Experiment: Vitamin D metabolism in keratinocytes: 1,25D degradation
Assay type: cell-based, human
Conditions: 1 uM, 20 hours (Table 2)
REPORTED_METRIC: blocking of 1,25D degradation (in words)

Clc1ccccc1C(c1ccccc1)(c1ccccc1)n1ccnc1 = very effective
c1ccc(-c2ccc(C(c3ccccc3)n3ccnc3)cc2)cc1 (stereo not shown) = very effective
Clc1ccc(COC(Cn2ccnc2)c2ccc(Cl)cc2Cl)cc1 (stereo not shown) = very effective

====

System: 25D degradation (vitamin D metabolism in keratinocytes)
Test: Vitamin D metabolism in keratinocytes: 25D degradation
Assay type: cell-based, human
Conditions: Table 1; 100 uM compound
REPORTED_METRIC: % degradation (25D) (%)
Write the number in % without appending the unit.

Ask: Note % degradation (25D) for the compound shown: `Cc1ncc(C[n+]2csc(CCO)c2C)c(N)n1`
Result: 85

Ask: Give the measured % degradation (25D) for `Nc1nc2ncc(CNc3ccc(C(=O)N[C@@H](CCC(=O)O)C(=O)O)cc3)nc2c(=O)[nH]1`
Result: 78

Ask: Supply reported % degradation (25D) belonging to this compound: `N[C@@H](Cc1c[nH]c2ccccc12)C(=O)O`
Result: 83

Ask: Return the recorded % degradation (25D) value; entry: `CC1=CC(=O)c2ccccc2C1=O`
Result: 89
